Biological target: T1, recombinant human IgE (human, UniProt P01854-1 1-428)
T1 construct: made in-house (ALK); preloaded on immobilised FcεRIα in the displacement ELISA
T1 sequence (P01854 other isoform, or with tags, fused parts or gaps): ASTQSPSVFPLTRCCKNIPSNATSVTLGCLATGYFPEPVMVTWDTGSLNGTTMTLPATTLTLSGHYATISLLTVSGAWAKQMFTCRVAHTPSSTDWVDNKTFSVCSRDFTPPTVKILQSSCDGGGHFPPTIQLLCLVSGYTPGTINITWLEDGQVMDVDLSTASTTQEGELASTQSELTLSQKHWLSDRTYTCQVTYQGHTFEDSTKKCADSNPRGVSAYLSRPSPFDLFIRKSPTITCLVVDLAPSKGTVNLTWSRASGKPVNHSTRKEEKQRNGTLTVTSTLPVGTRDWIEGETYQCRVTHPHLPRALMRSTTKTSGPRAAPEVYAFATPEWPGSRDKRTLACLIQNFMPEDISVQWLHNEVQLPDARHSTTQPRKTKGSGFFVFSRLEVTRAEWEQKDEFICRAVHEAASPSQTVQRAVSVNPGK
Assay: IgE-FcεRIα displacement ELISA
Max effect for assorted binders
Give the value, in units of %, as a plain number.

Binder: sdAb E3 (VHH) VHH: DVQLQESGGGLVQAGGSLRLACAASGRTLSSYVVSWFRQAPGKERKFVAAITWSGLSTTYLDSVQGRFTISRDNTKDTVYLQMNSLKPQDTAIYYCAAGPNIPSILRTRESEYAYWGQGTQVTVS
Unit Of Measure: %
Experimental Result: 0

Now look at this entry.
Form field Max effect, entry sdAb B3 (VHH) VHH: DVQLQESGGGLVQAGGSLRLSCAASGFIFRLAGMSWVRQAPGKGFEWVSGITMDGSTTNYADSVKGRFTISRDNSKNRLYLQMNSLKPEDTAVYYCARGAKGGYNDPRGQGTQVTVS : 0
